# assayRemarks: reversal of MRP1-mediated doxorubicin resistance, pilot screen, H69AR cells, doxorubicin co-treatment (AID 601)
# testParameters: H69AR cells, CellTiter-Glo, 72 h; compound alone cytotoxicity; at 10 µM
Entries and their viability
Answers without a unit are incomplete; give the number and then its unit.

State the recorded viability for this entry: CC1(C)S[C@@H]2[C@H](NC(=O)Cc3ccccc3)C(=O)N2[C@H]1C(=O)O
109%

Next record, please: COc1ccc(NC(=O)CN2CCN(S(=O)(=O)c3ccc(Cl)cc3)CC2)cc1
81.8%

Follow-up entry: Nc1sccc1C(=O)c1ccccc1
88.5%

Consider next the molecule Nc1nc(F)nc2c1ncn2[C@@H]1O[C@H](CO)[C@@H](O)[C@@H]1O in the same way.
103%

---

# growth inhibition per record follows
# assayRemarks: Restrictive medium S. cerevisiae growth inhibition, OD615, pilot screen of yeast lifespan reduction project, restrictive growth control (AID 706);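 note: modified DeaD lifespan yeast strain shifted to restrictive glucose medium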
# testParameters: OD615, 48 h, at 10 µM, stronger effect = higher value
Please state the figure in %; there is no need to write the unit.

• O=C(OCCN1C(=O)c2ccccc2C1=O)c1cc2ccccc2o1 = -4.04
• Cc1csc(NC(=O)CNS(=O)(=O)c2cccs2)n1 = -18.9
• CC(=O)c1ccc(NC(=O)CSc2nnc(NC(=O)CN3CCOCC3)s2)cc1 = 7.59
• CCOC(=O)C1=C(C)Nc2nc(C)nn2C1c1ccc(OCC)c(OC)c1 (stereo unspecified) = -3.29
• Cc1ccc(N(CC(=O)NC2CCC(C)CC2)S(=O)(=O)c2cccnc2)cc1 (stereo unspecified) = 8.91

Recorded growth inhibition for Cc1noc(/C=C/N(C)C)c1S(=O)(=O)N1CCCC(C(=O)NC2CCCCC2C)C1 (stereo unspecified) , please?
-6.36

Okay, and CCOc1ccc(C2C(C(=O)Nc3ccc(F)cc3)=C(C)Nc3nc(CCCO)nn32)cc1 (stereo unspecified) ?
12.8

Param item: CC1CCN(CCCNC(=O)c2cc3c(=O)n(C)c4ccccc4c3n2C)CC1
-4.35

And CN(Cc1ccco1)C(=O)C(Cc1ccccc1)NS(=O)(=O)c1ccc2c(c1)CCC(=O)N2 (stereo unspecified) ?
-12.3

Further, for CCOC(=O)N1CCN(C(=O)c2oc3ccc(S(=O)(=O)N4CC(C)CC(C)C4)cc3c2C)CC1 (stereo unspecified) ?
2.18

Now consider COc1ccc(-c2noc(Cc3ccccc3OC)n2)cc1 and answer again.
-10.5

Entry OCCN1CCN(c2ncnc3c2sc2nc(N4CCOCC4)c4c(c23)CCC4)CC1 please
-3.42

Same for Cc1ccccc1CSc1nnc(-c2ccco2)n1Cc1ccco1
10.2

Here is the next molecule: CN(CC(=O)NC1CCCc2ccccc21)S(=O)(=O)c1ccc2c(c1)c(=O)n(C)c(=O)n2C (stereo unspecified)
-10.7

Now give it for CC(=O)Nc1ccc(S(=O)(=O)NCCSCc2ccco2)cc1 too.
16.6

Now consider Cn1c(Cn2c(=O)sc3ccccc32)nnc1SCC(=O)NCc1ccc2c(c1)OCO2 .
-2.44

---

# assayRemarks: growth suppression of PTEN-deleted HCT116, pilot screen, cell-based, HCT116 clonal line, CellTiter-Glo (AID 824);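 note: 0% = 20 µM Hyamine control and 100% = vehicle cell control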
# testParameters: 60 h, at 10 µM, stronger effect = lower value
Inconclusive results are not listed.
// reported viability per item
Numeric only. Scale: %

* CC(=O)N1CCN(c2ccc(NCc3ccc(F)cc3)cc2)CC1 | 83.1
* CCC(C)C1C(C#N)=C(N)Oc2n[nH]c(-c3ccccc3)c21 (centres undefined) | 94.3
* O=C(NCCCN1CCCCC1)C1(S(=O)(=O)c2ccc(Cl)cc2)CC1 | 97.2
* O=C(Cc1ccc2c(c1)OCCO2)c1c(O)cc(O)cc1O | 94
* CCc1cccc(Nc2cc(C)nc3ncnn23)c1 | 93
* CC(=O)C1=C(C)NC(SCC(N)=O)=C(C#N)C1c1cccnc1 (centres undefined) | 101
* CCN(CC)S(=O)(=O)c1ccc(C(=O)C(C#N)c2ccccn2)cc1 (centres undefined) | 102
* Cc1ccc(-c2nn(-c3ccccc3)cc2C(=O)N2CCOCC2)cc1 | 89
* Cc1ccc(C2CC(c3cccc(C)c3)n3nc(N)nc3N2)cc1 (centres undefined) | 81
* Cn1c(C(=O)N2CCN(c3ncccn3)CC2)cc2c(=O)n(C)c3ccccc3c21 | 97.2

What value of viability has been recorded for this entry: CCn1c(O)c(C2=NCCCC2)c2ccccc21
102

Next up: O=C(CCc1ccccc1)Nc1nnc(-c2ccc3c(c2)CCCC3)o1
72.1

COc1cccc(-c2csc(NC(=O)C3CC3)n2)c1 ?
91.5

Follow-up entry: CCOC(=O)C1CCN(C(=O)c2oc3ccc(S(=O)(=O)N4CCCCCC4)cc3c2C)CC1
78.9

Next compound up: Cc1nc(Nc2nc3ccccc3o2)nc2c1CCC2
76

Also CCOc1ccccc1Nc1ncnc2c1cnn2-c1ccccc1 , if possible.
91.1

Same for Nn1c(SC/C=C/c2ccccc2)nnc1-c1ccccn1
95.1

Likewise for CN(C)S(=O)(=O)c1ccc(S(=O)(=O)N2CCN(CCC#N)CC2)cc1 ?
101

Can you check O=C(CNC(=O)c1ccco1)OCC(=O)c1ccccc1 next?
94.3

Follow-up entry: CCOc1ccc(N2CC(=O)SC2=S)cc1
95.9

Queued: CCCCCn1c(SCCOCC)nc2c1c(=O)[nH]c(=O)n2C
97.2

And what about the compound COc1ccc(S(=O)(=O)NCCN2CCOCC2)c2ccccc12 ?
95.1

Here is the next compound: CC1CCCCN1c1nnc(NC(=O)Cn2c(=O)oc3ccccc32)s1 (centres undefined)
97.8

Check COc1ccc(C2CC(c3ccc(F)cc3)Nc3nc(N)nn32)cc1 (centres undefined) too.
94.4
